target: REC17 serotonin receptor (5-HT5α) (Rattus norvegicus)
Sequence (P35364 whole entry): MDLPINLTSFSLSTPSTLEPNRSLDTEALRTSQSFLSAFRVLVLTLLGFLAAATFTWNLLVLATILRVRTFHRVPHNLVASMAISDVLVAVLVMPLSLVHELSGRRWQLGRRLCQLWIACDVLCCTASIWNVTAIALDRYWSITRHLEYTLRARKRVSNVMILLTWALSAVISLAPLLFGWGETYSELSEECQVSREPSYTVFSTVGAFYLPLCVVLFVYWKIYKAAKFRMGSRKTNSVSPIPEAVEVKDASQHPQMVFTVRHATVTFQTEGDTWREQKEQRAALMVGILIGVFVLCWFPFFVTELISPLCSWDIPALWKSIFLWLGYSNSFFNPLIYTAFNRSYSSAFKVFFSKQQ
Listed compounds paired with reported pIC50
Just the number, please; pIC50 means minus log10 of the concentration in mol/L.

Solved cases below.
CSc1ccc2c(c1)C(N1CCN(C)CC1)Cc1ccccc1S2 (centres unmarked) [Methiothepin]
7.35
NCCc1c[nH]c2ccc(C(N)=O)cc12
7.69
CC[C@@H](CO)NC(=O)[C@@H]1C=C2c3cccc4c3c(cn4C)C[C@H]2N(C)C1 [Methysergide]
6.51

Query: For the compound NCCc1c[nH]c2ccc(O)cc12 [Ligand 5-HT, 5-hydroxytryptamine] , give its reported pIC50.
Result: 6.42

----------
biological target: MR77 serotonin receptor (5-HT1E-Like) (Rattus norvegicus); construct: expressed in transfected cells; host or cells: CosM6 (subclone of COS-7), transient, vector pCMV4; assay: [125I]-LSD competition binding to membranes of CosM6 cells expressing MR77; details: CosM6 membranes, 1 nM [125I]-LSD, 60 min 37° C.; read-out: IC50 for competition with 125I-LSD, MR77
Sequence (P30940 whole entry): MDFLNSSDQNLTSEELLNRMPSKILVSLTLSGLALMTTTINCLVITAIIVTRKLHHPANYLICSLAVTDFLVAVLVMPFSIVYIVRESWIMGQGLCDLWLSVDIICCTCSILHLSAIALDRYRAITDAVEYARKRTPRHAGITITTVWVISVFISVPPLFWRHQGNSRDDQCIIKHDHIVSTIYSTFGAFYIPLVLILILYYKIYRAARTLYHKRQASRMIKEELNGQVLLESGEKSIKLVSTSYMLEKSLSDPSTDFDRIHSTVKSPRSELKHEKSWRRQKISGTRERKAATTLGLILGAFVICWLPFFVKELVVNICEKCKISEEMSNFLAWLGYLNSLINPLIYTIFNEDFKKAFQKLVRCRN
reportedProperty: IC50 (nM)
Could you give me the number in nM? Just the number is fine.

COC(=O)[C@@H]1[C@H]2C[C@H]3c4[nH]c5ccccc5c4CCN3C[C@@H]2CC[C@@H]1O [Yohimbine]
570
CN1C[C@H](CNC(=O)OCc2ccccc2)C[C@@H]2c3cccc4c3c(cn4C)C[C@H]21 [Metergoline]
535

Next:
Query: For the compound NCCc1c[nH]c2ccc(O)cc12 [Ligand 5-HT, 5-hydroxytryptamine] , give its reported IC50.
Result: 70

----------
biological target: MR22 serotonin receptor (5-HT5β) (Rattus norvegicus); construct: contains an open reading frame (ORF) encoding 370 amino acids; expressed in transfected cells; host or cells: CosM6 (subclone of COS-7), transient, vector pCMV4; assay: [125I]-LSD competition binding to membranes of CosM6 cells expressing MR22
Sequence (P35365 whole entry S4C/P322A): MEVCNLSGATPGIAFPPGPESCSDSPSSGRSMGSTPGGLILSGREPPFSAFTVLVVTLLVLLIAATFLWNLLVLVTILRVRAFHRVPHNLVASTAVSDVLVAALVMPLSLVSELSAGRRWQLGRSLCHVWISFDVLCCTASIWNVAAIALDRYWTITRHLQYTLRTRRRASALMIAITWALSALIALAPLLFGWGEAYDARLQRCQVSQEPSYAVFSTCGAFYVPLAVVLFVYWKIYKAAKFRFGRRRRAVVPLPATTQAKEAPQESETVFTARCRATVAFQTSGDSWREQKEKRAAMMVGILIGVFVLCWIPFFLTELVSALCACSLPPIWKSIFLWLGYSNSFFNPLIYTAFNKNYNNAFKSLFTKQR
reportedProperty: sensitivity of MR22 to the ligand (in words)

Solved cases below.
NCCc1c[nH]c2ccc(C(N)=O)cc12
sensitive
CCCN(CCC)C1CCc2cccc(O)c2C1 (centres unmarked)
insensitive
CNS(=O)(=O)Cc1ccc2[nH]cc(CCN(C)C)c2c1
insensitive
CSc1ccc2c(c1)C(N1CCN(C)CC1)Cc1ccccc1S2 (centres unmarked) [Methiothepin]
sensitive

Next:
Query: For the compound CN1C[C@H](C(=O)N[C@]2(C)O[C@@]3(O)[C@@H]4CCCN4C(=O)[C@H](Cc4ccccc4)N3C2=O)C=C2c3cccc4[nH]cc(c34)C[C@H]21 , give its reported sensitivity of MR22 to the ligand (in words).
Result: sensitive

----------
The compounds below have reported pIC50 for MR22 serotonin receptor (5-HT5β) (Rattus norvegicus).
pIC50: −log10 of the molar value.

Solved cases below.
CNS(=O)(=O)Cc1ccc2[nH]cc(CCN(C)C)c2c1 [Sumatriptan]
< 6.00
NCCc1c[nH]c2ccc(C(N)=O)cc12 [Ligand 5-CT, 5-carboxyamidotryptamine]
6.55

Query: For the compound CC[C@@H](CO)NC(=O)[C@@H]1C=C2c3cccc4c3c(cn4C)C[C@H]2N(C)C1 [Methysergide] , give its reported pIC50.
Result: < 6.00

Query: For the compound CN1C[C@H](CNC(=O)OCc2ccccc2)C[C@@H]2c3cccc4c3c(cn4C)C[C@H]21 [Metergoline] , give its reported pIC50.
Result: < 6.00

Query: For the compound CCCN(CCC)C1CCc2cccc(O)c2C1 (stereo not shown) [Ligand 8-OH-DPAT] , give its reported pIC50.
Result: < 6.00

Query: For the compound CN1C[C@@H](NS(=O)(=O)N(C)C)C[C@@H]2c3cccc4c3c(cn4C)C[C@H]21 [Mesulergine] , give its reported pIC50.
Result: < 6.00

Query: For the compound CN1C[C@H](C(=O)N[C@]2(C)O[C@@]3(O)[C@@H]4CCCN4C(=O)[C@H](Cc4ccccc4)N3C2=O)C=C2c3cccc4[nH]cc(c34)C[C@H]21 [Ergotamine] , give its reported pIC50.
Result: 7.66

----------
molecular target: REC20 serotonin receptor (5-HT6) (Rattus norvegicus, UniProt P32305); construct: encodes a putative protein of 435 amino acids; expressed in transfected cells; host or cells: CosM6 (subclone of COS-7), transient, vector pCMV4; experiment: [125I]-LSD competition binding to membranes of CosM6 cells expressing REC20; conditions: CosM6 membranes, 1 nM [125I]-LSD, 60 min 37° C.; read-out: IC50 for competition with 125I-LSD, Rec20
Sequence (P32305 1-435): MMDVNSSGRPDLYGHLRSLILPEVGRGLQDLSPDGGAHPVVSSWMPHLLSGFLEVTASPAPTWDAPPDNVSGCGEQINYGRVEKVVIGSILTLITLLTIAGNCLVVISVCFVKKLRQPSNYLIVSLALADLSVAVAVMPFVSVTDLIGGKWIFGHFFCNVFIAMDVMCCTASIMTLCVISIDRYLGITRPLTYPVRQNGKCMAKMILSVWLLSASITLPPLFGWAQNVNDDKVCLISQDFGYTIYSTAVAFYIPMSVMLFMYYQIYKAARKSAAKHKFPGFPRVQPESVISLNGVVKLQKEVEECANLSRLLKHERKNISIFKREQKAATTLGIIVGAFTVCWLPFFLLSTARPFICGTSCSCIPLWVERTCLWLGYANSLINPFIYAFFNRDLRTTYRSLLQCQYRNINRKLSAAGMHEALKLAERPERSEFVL
reportedProperty: pIC50
Just the number, please; pIC50 means minus log10 of the concentration in mol/L.

Solved cases below.
NCCc1c[nH]c2ccc(C(N)=O)cc12
9.10
CN1C[C@H](CNC(=O)OCc2ccccc2)C[C@@H]2c3cccc4c3c(cn4C)C[C@H]21
7.77
CCCN(CCC)C1CCc2cccc(O)c2C1 (stereo not shown)
7.01
Cc1nc2sccn2c(=O)c1CCN1CCC(=C(c2ccc(F)cc2)c2ccc(F)cc2)CC1
7.22

Next:
Query: For the compound CN1C[C@@H](NS(=O)(=O)N(C)C)C[C@@H]2c3cccc4c3c(cn4C)C[C@H]21 , give its reported pIC50.
Result: 7.77

----------
The compounds below have reported IC50 for REC17 serotonin receptor (5-HT5α) (Rattus norvegicus).

CN1C[C@H](CNC(=O)OCc2ccccc2)C[C@@H]2c3cccc4c3c(cn4C)C[C@H]21
> 1 µM
CCCN(CCC)C1CCc2cccc(O)c2C1 (stereo not shown)
> 1 µM
CN1C[C@@H](NS(=O)(=O)N(C)C)C[C@@H]2c3cccc4c3c(cn4C)C[C@H]21
> 1 µM

Next:
Query: Quote REC17 serotonin receptor (5-HT5α) (Rattus norvegicus) IC50 for entry CNS(=O)(=O)Cc1ccc2[nH]cc(CCN(C)C)c2c1 .
Result: > 1 µM

----------
biological target: MR77 serotonin receptor (5-HT1E-Like) (Rattus norvegicus); construct: expressed in transfected cells; host or cells: CosM6 (subclone of COS-7), transient, vector pCMV4; experiment: [125I]-LSD competition binding to membranes of CosM6 cells expressing MR77; conditions: CosM6 membranes, 1 nM [125I]-LSD, 60 min 37° C.; read-out: IC50 for competition with 125I-LSD, MR77
reportedProperty: IC50

Solved cases below.
CN1C[C@@H](NS(=O)(=O)N(C)C)C[C@@H]2c3cccc4c3c(cn4C)C[C@H]21 [Mesulergine]
> 1000 nM
NCCc1c[nH]c2ccc(C(N)=O)cc12 [Ligand 5-CT, 5-carboxyamidotryptamine]
> 1000 nM

Next:
Query: For the molecule CSc1ccc2c(c1)C(N1CCN(C)CC1)Cc1ccccc1S2 (stereo not drawn) [Methiothepin] , give its reported IC50.
Result: > 1000 nM
